Listed next: entries and their corresponding DC50.
molecular target: Cbl-b (Homo sapiens, UniProt Q13191); construct: Cbl-b-HiBit KI Jurkat Cells were purchased from Promega; host or cells: Cbl-b-HiBiT knock-in Jurkat cells; test: Cbl-b Degradation Method A (FACS, anti-Cbl-b antibody staining); assay type: cell-based; details: Cbl-b-HiBit KI Jurkat Cells, incubated at least 20 hours; half maximal degradation; read-out: Cbl-b Degredation Method A IC50
Sequence (Q13191 whole entry): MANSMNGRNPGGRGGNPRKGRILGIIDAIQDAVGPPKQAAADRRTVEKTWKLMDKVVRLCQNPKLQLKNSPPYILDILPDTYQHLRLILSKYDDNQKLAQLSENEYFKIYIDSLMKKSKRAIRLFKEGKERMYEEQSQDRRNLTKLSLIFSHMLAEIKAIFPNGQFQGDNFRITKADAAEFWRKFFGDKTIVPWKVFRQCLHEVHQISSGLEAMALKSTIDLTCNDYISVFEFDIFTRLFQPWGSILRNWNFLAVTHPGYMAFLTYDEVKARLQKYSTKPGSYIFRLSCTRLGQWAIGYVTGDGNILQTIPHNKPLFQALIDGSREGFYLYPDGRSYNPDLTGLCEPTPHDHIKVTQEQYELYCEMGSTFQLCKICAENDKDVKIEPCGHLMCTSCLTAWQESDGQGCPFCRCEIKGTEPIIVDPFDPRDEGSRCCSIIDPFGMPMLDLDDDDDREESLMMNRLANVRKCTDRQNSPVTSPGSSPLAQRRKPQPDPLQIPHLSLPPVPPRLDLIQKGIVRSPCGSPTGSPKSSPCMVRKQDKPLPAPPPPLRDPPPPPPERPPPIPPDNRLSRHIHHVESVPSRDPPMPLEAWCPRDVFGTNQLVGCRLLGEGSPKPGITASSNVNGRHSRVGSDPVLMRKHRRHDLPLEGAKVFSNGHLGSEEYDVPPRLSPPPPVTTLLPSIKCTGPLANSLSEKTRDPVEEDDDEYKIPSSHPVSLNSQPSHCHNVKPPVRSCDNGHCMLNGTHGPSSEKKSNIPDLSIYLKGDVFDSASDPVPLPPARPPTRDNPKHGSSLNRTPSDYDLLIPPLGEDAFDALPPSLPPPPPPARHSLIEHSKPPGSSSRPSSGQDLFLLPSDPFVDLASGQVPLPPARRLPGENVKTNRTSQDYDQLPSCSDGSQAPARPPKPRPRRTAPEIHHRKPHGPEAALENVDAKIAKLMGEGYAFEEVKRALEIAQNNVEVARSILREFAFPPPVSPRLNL

Answered cases to consult:
compound: CC1c2nc(N3CCC(O[C@H]4CC[C@H](CN5CCN(Cc6cc7c(c(C(F)(F)F)c6)CN(c6cccc(C8(c9nncn9C)CCO8)c6)C7=O)C(C)(C)C5)CC4)CC3)ccc2C(=O)N1C1CCC(=O)NC1=O (stereo partly drawn) [Example 281]
target.desc: Cbl-b (Homo sapiens, UniProt Q13191)
reported.result: 5 to 50 nM

compound: Cn1cnnc1CC1(c2cccc(N3Cc4c(cc(N5CC(OCC6CCN(c7ccc8c(c7)CN(C7CCC(=O)NC7=O)C8=O)CC6)C5)cc4C(F)(F)F)C3=O)c2)COC1 (stereo not drawn) [Example 21]
target.desc: Cbl-b (Homo sapiens, UniProt Q13191)
reported.result: > 500 nM

compound: Cn1cnnc1C[C@]1(c2cccc(N3Cc4c(cc(CN5CCN(C[C@H]6CC[C@H](OC7CCN(c8ccc9c(c8)CC(=O)N9C8CCC(=O)NC8=O)CC7)CC6)CC5)cc4C(F)(F)F)C3=O)c2)C[C@H](C#N)C1 (stereo partly drawn) [Example 219]
target.desc: Cbl-b (Homo sapiens, UniProt Q13191)
reported.result: < 5 nM

compound: Cc1cc(N2CCC(O[C@H]3CC[C@H](CN4CCN(Cc5cc6c(c(C(F)(F)F)c5)CN(c5cccc(C7(Cc8nncn8C)CCC7)c5)C6=O)C(C)(C)C4)CC3)CC2)c(F)c2c1C(=O)N(C1CCC(=O)NC1=O)C2 (stereo partly drawn) [Example 224]
target.desc: Cbl-b (Homo sapiens, UniProt Q13191)
reported.result: 5 to 50 nM

compound: Cn1cnnc1CC1(c2cccc(N3Cc4c(cc(N5CC6(CCN(CC7CCN(c8cccc9c8CN(C8CCC(=O)NC8=O)C9=O)CC7)CC6)C5)cc4C(F)(F)F)C3=O)c2)COC1 (stereo not drawn) [Example 119]
target.desc: Cbl-b (Homo sapiens, UniProt Q13191)
reported.result: 5 to 50 nM

Exercise: Respond only with DC50 recorded for CC1c2nc(N3CCC(CN4CCC(CN5CCN(Cc6cc7c(c(C(F)(F)F)c6)CN(c6cccc([C@]8(Cc9nncn9C)C[C@@H](C#N)C8)c6)C7=O)C(C)(C)C5)CC4)CC3)ccc2C(=O)N1C1CCC(=O)NC1=O (stereo partly drawn) [Example 303]
Solution: 5 to 50 nM

Exercise: Respond only with DC50 recorded for Cn1cnnc1C(c1cccc(N2Cc3c(cc(CN4CCC[C@H](CN5CCN(C[C@H]6CC[C@@H](OC7CCN(c8ccc9c(c8F)CN(C8CCC(=O)NC8=O)C9=O)CC7)CC6)CC5)C4)cc3C(F)(F)F)C2=O)c1)C1CCC1 (stereo partly drawn) [Example 158]
Solution: < 5 nM

Exercise: Respond only with DC50 recorded for Cn1cnnc1CC1(c2cccc(N3Cc4c(cc(CN5CCN(C[C@H]6CC[C@H](OC7CCN(c8ccc9c(c8)CC(=O)N9C8CCC(=O)NC8=O)CC7)CC6)CC5(C)C)cc4C(F)(F)F)C3=O)c2)CC(C#N)C1 (stereo partly drawn) [Example 316]
Solution: 50 to 500 nM

Exercise: Respond only with DC50 recorded for CC1c2nc(N3CCC(O[C@H]4CC[C@H](CN5CCN(Cc6cc7c(c(C(F)(F)F)c6)CN(c6cccc(C8(Cc9nncn9C)CCC8)c6)C7=O)CC5)CC4)CC3)ccc2C(=O)N1C1CCC(=O)NC1=O (mixture of isomers) [Example 232]
Solution: 5 to 50 nM
